assay target: KRAS G12S (Homo sapiens, UniProt P01116+P62937, G12S)
Sequence (P01116 1-169 isoform P01116-2 G12S limits assumed): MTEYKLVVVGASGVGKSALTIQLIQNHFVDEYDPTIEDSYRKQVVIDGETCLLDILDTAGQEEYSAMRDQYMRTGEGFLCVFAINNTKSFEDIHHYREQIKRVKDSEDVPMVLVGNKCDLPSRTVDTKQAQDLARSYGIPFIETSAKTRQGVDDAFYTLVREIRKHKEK
Sequence (P62937 whole entry): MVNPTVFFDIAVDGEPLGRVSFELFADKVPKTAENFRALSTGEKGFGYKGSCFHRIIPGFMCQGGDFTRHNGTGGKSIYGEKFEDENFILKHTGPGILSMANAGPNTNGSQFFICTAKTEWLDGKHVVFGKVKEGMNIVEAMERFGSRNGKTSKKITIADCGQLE
assay explanation: Disruption of BRAF RBD interaction with Ras (FRET / MOA assay, with Cyclophilin A)
Format: biochemical
experimental context: KRAS G12S FRET data, IC50
pIC50: −log10 of the molar value.
The entries below come with measured pIC50 values attached.

Completed entries (count: 3):
{"columns": ["compound", "pIC50"],
 "data": [
  ["C=CC(=O)N1CC[C@H](C(=O)N(C)[C@H](C(=O)N[C@H]2Cc3cccc(c3)-c3ccc4c(c3)c(c(-c3cccnc3[C@H](C)OC)n4CC)CC(C)(C)COC(=O)[C@@H]3CCCN(O3)C2=O)C(C)C)C1", "< 5.00"],
  ["CCn1c(-c2cccnc2[C@H](C)OC)c2c3cc(ccc31)-c1csc(n1)C[C@H](NC(=O)[C@H](C(C)C)N(C)C(=O)N1CCC[C@H](CN(C)C)C1)C(=O)N1CCC[C@H](N1)C(=O)OCC(C)(C)C2 (atropisomer, axis not shown)", "7.00 to 8.00"],
  ["CCn1c(-c2cnccc2COC)c2c3cc(ccc31)-c1cc(O)cc(c1)C[C@H](NC(=O)[C@H](C(C)C)N(C)C(=O)[C@H]1CCN(S(=O)(=O)N3CC(O)C3)C1)C(=O)N1CCC[C@H](N1)C(=O)OCC(C)(C)C2", "6.00 to 7.00"]
]}

Data point: CCn1c(-c2cccnc2[C@H](C)OC)c2c3cc(ccc31)-c1csc(n1)C[C@H](NC(=O)[C@H](C(C)C)N(C)C(=O)N1CCC(N(C)C)CC1)C(=O)N1CCC[C@H](N1)C(=O)OCC(C)(C)C2 (atropisomer, axis not shown) ; pIC50 = 6.00 to 7.00
